Reference source: paper PMC12332266

For each record, write down the corresponding RTCA, MEC (BR).
# Tested on: hiPSC-CM (iCell Cardiomyocytes^2)
# method summary: RTCA CardioECR assessment (impedance and electrophysiology parameters)
# cond: human, 72 h
Quick note: give the figure in µM, leave out the unit.

*Q* Report RTCA, MEC (BR) for CCC1=C[C@@H]2CN(C1)Cc1c([nH]c3ccccc13)[C@@](C(=O)OC)(c1cc3c(cc1OC)N(C)[C@H]1[C@@](O)(C(=O)OC)[C@H](OC(C)=O)[C@]4(CC)C=CCN5CC[C@]31[C@@H]54)C2 please.
*A* 1

*Q* Sample COc1nc(N)nc2c1ncn2[C@@H]1O[C@H](COP(=O)(N[C@@H](C)C(=O)OCC(C)(C)C)Oc2cccc3ccccc23)[C@@H](O)[C@@]1(C)O (some centres unmarked) — what was its RTCA, MEC (BR)?
*A* 0.048
